molecular target: Ubiquitin carboxyl-terminal hydrolase 8 (Homo sapiens) (UniProt P40818); experiment: Ubiquitin-specific protease 8 inhibitors, concentration-effect, biochemical, validation of initial actives (AID 1645862); conditions: recombinant USP8 deubiquitinase activity assay;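 also: potency reflects inhibition of USP8 cleavage of a ubiquitin rhodamine substrate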
Sequence (P40818 whole entry, looked up): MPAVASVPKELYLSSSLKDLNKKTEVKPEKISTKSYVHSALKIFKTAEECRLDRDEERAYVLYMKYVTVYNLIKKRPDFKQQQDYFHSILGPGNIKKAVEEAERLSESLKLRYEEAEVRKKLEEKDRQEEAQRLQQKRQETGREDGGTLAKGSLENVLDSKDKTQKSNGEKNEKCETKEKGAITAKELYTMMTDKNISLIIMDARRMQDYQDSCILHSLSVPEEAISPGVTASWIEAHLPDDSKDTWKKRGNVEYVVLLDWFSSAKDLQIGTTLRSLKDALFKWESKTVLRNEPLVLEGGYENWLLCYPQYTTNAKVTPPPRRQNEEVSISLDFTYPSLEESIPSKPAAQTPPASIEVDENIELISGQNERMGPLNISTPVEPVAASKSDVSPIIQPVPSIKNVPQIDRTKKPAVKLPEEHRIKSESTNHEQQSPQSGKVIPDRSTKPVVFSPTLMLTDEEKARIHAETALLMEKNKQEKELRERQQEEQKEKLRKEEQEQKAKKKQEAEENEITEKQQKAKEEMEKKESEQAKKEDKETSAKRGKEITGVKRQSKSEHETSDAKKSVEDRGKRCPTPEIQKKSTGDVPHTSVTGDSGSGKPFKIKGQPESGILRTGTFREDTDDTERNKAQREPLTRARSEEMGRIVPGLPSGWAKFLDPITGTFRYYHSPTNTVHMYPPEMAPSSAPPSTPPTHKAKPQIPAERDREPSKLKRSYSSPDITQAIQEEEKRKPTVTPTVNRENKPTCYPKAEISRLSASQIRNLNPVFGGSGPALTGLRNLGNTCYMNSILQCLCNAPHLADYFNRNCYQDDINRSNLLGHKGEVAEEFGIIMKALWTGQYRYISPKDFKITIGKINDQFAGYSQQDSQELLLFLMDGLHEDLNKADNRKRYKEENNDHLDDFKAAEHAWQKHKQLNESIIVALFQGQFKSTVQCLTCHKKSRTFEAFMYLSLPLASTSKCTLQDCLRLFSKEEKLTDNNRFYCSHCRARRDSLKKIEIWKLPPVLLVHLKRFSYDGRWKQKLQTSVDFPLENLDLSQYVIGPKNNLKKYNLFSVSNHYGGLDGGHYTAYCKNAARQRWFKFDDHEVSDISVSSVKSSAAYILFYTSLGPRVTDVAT
Activity calls are given as the source filed them. No rule for the calls is given here.
Outcome codes: 1 (yes) (active), 0 (no) (inactive)

molecule	qualitativeLabel
COc1ccc(NC(=O)c2nnc(C(=O)NCc3ccccc3F)s2)cc1	0 (no)
COc1ccc(C(=O)C(C)OC(=O)c2cccc(S(=O)(=O)Nc3cc([N+](=O)[O-])ccc3OC)c2)c(OC)c1 (centres undefined)	0 (no)
O=c1cc(-c2ccc(O)c(O)c2)oc2cc(O[C@@H]3O[C@H](CO)[C@@H](O)[C@H](O)[C@H]3O)cc(O)c12	1 (yes)
COc1ccc(CNC(=O)CCCc2nnc3c(=O)n(-c4cc(C)cc(C)c4)ccn23)cc1	0 (no)
CS(=O)(=O)c1ccc2nc(N(Cc3cccnc3)C(=O)c3ccc4ccccc4c3)sc2c1	0 (no)
COc1cccc(NC(=O)c2cn(-c3cc(N4CCCC4)ncn3)cn2)c1	0 (no)
COc1cccc(C(=O)Nc2nc(-c3nnn(-c4ccc(C)c(F)c4)c3C)ns2)c1	0 (no)
CCCn1cc(C(=O)N2CCC3(CC2)CC2(CO3)Nc3ccccc3-n3cccc32)c(C)n1 (centres undefined)	1 (yes)
COc1ccc(CC(=O)Nc2ccccc2-c2nc3ccccc3[nH]2)cc1OC	0 (no)

###

biological target: UniProt P40818; assay: Ubiquitin-specific protease 8 inhibitors, concentration-effect, biochemical, validation of initial actives (AID 1645862); details: recombinant USP8 deubiquitinase activity assay;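 also: potency reflects inhibition of USP8 cleavage of a ubiquitin rhodamine substrate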
Activity calls are given as the source filed them. No rule for the calls is given here.
Outcomes: active, inactive

compound	qualitativeLabel
CCOc1ccc(NC(=O)Cn2cc(C(=O)c3ccc(Cl)cc3)c(=O)c3cc(OC)ccc32)cc1	inactive
Nc1ncc(-c2ccc(F)cc2)c(C2CCCN(C(=O)c3ccn[nH]3)C2)n1 (stereo not given)	inactive
Cc1nn(-c2ccccc2)c2c1N=C1C(Cl)=CC(Cl)=CN1C21C(=O)Nc2ccccc21 (stereo not given)	inactive
O=C(c1cc(S(=O)(=O)Nc2ccc(Cl)cc2)ccc1Cl)N1CCCc2ccccc21	inactive
N#Cc1cccc(NC(=O)c2[nH]nc3c2COc2ccccc2-3)c1	active
COc1cccc2cc(-c3nnc(SCC(=O)c4ccc(F)cc4)n3C)oc12	inactive
CNC(=O)c1c2n(c3ncccc13)CCN(S(=O)(=O)c1ccc(-c3ccccc3)cc1)C2	inactive
c1ccc(CNc2ccc(-c3ccccc3)nn2)cc1	inactive
Cc1nc(SCC(=O)Nc2ccc(S(N)(=O)=O)cc2)c2cnn(-c3ccccc3)c2n1	inactive
CCOc1ccc(CCNC(=O)Cn2c(-c3ccc(F)cc3)cc(C(C)=O)c2C)cc1OCC	inactive

###

target: Ubiquitin carboxyl-terminal hydrolase 8 (Homo sapiens) (UniProt P40818); assay: Ubiquitin-specific protease 8 inhibitors, concentration-effect, biochemical, validation of initial actives (AID 1645862); conditions: recombinant USP8 deubiquitinase activity assay;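 also: potency reflects inhibition of USP8 cleavage of a ubiquitin rhodamine substrate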
Calls of active or inactive are those of the source. The rule behind the calls is not given here.
Labels: active, inactive

compound	qualitativeLabel
O=C(OC1CSc2nc3ccccc3n2C1)c1ccc([N+](=O)[O-])o1 (stereo not given)	active
COc1cc(C2CC(=O)c3c([nH]c(C(=O)OCCOc4ccccc4)c3C)C2)cc(OC)c1OC (stereo not given)	inactive
Cn1c(=O)c2ncnnc2n(C)c1=O	active
OC1CCCN(c2ncc(-c3cnccn3)c(-c3cccs3)n2)C1 (stereo not given)	inactive
Cc1ccccc1NC(=O)Cc1csc2nc(-c3ccc(F)cc3)cn12	inactive
COc1ccccc1NC(=O)c1nc(-c2cn(-c3cccc(F)c3)nn2)no1	inactive
COc1ccc(Oc2cc3n(c(=O)n2)CCc2cc(OC)c(OC)cc2-3)cc1	inactive
Cc1ccc(S(=O)(=O)NCc2ccc(C(=O)NCCc3ccc(S(N)(=O)=O)cc3)cc2)cc1	inactive
COC(=O)c1ccc(Nc2cc(C)nc3cc(C(F)(F)F)ccc23)cc1	inactive
CCOc1ccc2c(c1)c(=O)c(C(=O)c1ccccc1)cn2CC(=O)Nc1ccc(OC)cc1	inactive

###

biological target: Ubiquitin carboxyl-terminal hydrolase 8 (Homo sapiens) (UniProt P40818); experiment: Ubiquitin-specific protease 8 inhibitors, concentration-effect, biochemical, validation of initial actives (AID 1645862); settings: recombinant USP8 deubiquitinase activity assay;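 also: potency reflects inhibition of USP8 cleavage of a ubiquitin rhodamine substrate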
The source made the active and inactive calls. How the calls were made is not given here.
Possible outcomes: active, inactive

molecule	qualitativeLabel
Cc1cc(NS(=O)(=O)c2ccc(NC(=O)COc3ccc(Cl)cc3)cc2)no1	inactive
Cc1ccc(C(=O)NC(C)c2ccccc2)cc1NC(=O)c1nsc2ccccc12 (stereo not given)	inactive
O=C1Cc2ccccc2C(=O)N1Cc1cccc(Cl)c1	active
O=C(CNC(=O)c1ccc2nc(-n3cccc3)sc2c1)NCc1ccccc1	inactive
NC(=O)c1ccccc1NC(=O)COc1ccc2c(c1)oc(=O)c1ccccc12	active
COc1ccc(S(=O)(=O)N2CCc3ccccc32)cc1C(=O)Nc1ccc2c(c1)NC(=O)C(C)O2 (stereo not given)	inactive
O=C(Cc1ccc(-n2c(=O)c3ccccc3n(Cc3cccc(F)c3)c2=O)cc1)NC1CCCC1	inactive
Cc1ccc(CNC(=O)Cn2c(=O)n(CCCC(=O)NCc3ccc(F)cc3)c(=O)c3ccccc32)cc1	inactive
N=C1/C(=C/c2cn(Cc3ccccc3)c3ccccc23)C(=O)N=C2SC(C(F)(F)F)=NN12	inactive
CCOc1ccc(C2/C(=C(\O)c3ccccc3)C(=O)C(=O)N2c2nc3ccc(F)cc3s2)cc1 (stereo not given)	inactive

###

target: Ubiquitin carboxyl-terminal hydrolase 8 (Homo sapiens) (UniProt P40818); experiment: Ubiquitin-specific protease 8 inhibitors, concentration-effect, biochemical, validation of initial actives (AID 1645862); conditions: recombinant USP8 deubiquitinase activity assay;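 also: potency reflects inhibition of USP8 cleavage of a ubiquitin rhodamine substrate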
The source made the active and inactive calls. No rule for the calls is given here.
Classes used: 1 = active, -1 = inactive

compound	qualitativeLabel
Fc1cc(F)c2[nH]cc(-c3nnnn3-c3ccc4ccccc4c3)c2c1	-1
Cc1nc(-c2ccc(C(=O)Nc3ccc(F)cc3)cc2)cs1	-1
CCc1ccc(NC(=O)Cn2c(=O)n(Cc3ccccc3)c(=O)c3nn(CC)cc32)cc1	-1
Cc1ccc(-n2cc(-c3noc(C(=O)Nc4ccc(F)cc4C)n3)nn2)cc1	1
Cc1cccc(NC(=O)Nc2ccc(C)n(CC(=O)Nc3ccc(C)c(C)c3)c2=O)c1	-1
CC(C)=CCc1c(O)cc2c(c1C)OC(=O)c1c(C)c(Cl)c(O)c(CO)c1O2	-1
COc1cc(O)c2c(O)c3c(cc2c1)C[C@@]1(O)CC(=O)C(C(N)=O)=C(O)[C@@]1(O)C3=O	1
CCOC(=O)N1CCN(C(=O)c2ccc(NCc3ccc(F)cc3)c(S(=O)(=O)Nc3cccc(C(F)(F)F)c3)c2)CC1	-1
Cc1ccc(NC(=O)CSc2ccc(NC(=O)c3ccc(C(=O)O)cc3C(=O)O)cc2)c(C)c1	-1
O=C(c1cccnc1)N1CCN(c2cc(-c3ccccc3)[nH]n2)CC1	-1
O=C(CCCCn1c(=O)[nH]c2ccccc2c1=O)Nc1cccc(Cl)c1	-1
CC(=O)c1ccc(NC(=O)CCc2c(C)c3c(C)nn(-c4ccccc4)c3n(C)c2=O)cc1	-1
COc1cc2c(c(OC)c1OC)-c1ccc(NCCc3cccc(F)c3)c(=O)cc1[C@@H](NC(C)=O)CC2	-1
COc1ccc(C(NC(=O)c2nc3n(n2)-c2ccccc2S(=O)(=O)N3)C(C)C)cc1 (stereo not drawn)	-1
CC(=O)O[C@@H](C/C=C(\C)C(=O)O)[C@@H](C)[C@H]1C[C@H](OC(C)=O)[C@@]2(C)C3=CC[C@H]4C(C)(C)[C@H](O)CC[C@]4(C)C3=CC[C@]12C	-1
O=C(Cn1c(=O)n(CCC(=O)NC2CCCC2)c(=O)c2ccccc21)NCc1ccccc1Cl	-1
Cn1cc(C(=O)NCC2COc3ccccc3O2)c(=O)c2cc(S(=O)(=O)N3CCCCC3)ccc21 (stereo not drawn)	-1
CC1(C)Cc2c(c(-c3ccco3)nc3sc4c(SCCCc5ccccc5)ncnc4c23)CO1	1

###

biological target: UniProtKB P40818; assay: Ubiquitin-specific protease 8 inhibitors, concentration-effect, biochemical, validation of initial actives (AID 1645862); conditions: recombinant USP8 deubiquitinase activity assay;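 also: potency reflects inhibition of USP8 cleavage of a ubiquitin rhodamine substrate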
Activity calls are given as the source filed them. No rule for the calls is given here.
Labels: Y = active, N = inactive

testSmiles	qualitativeLabel
COc1ccc(OC)c(-c2cn3ccn(-c4ccc(F)c(Cl)c4)c(=O)c3n2)c1	Y
Cc1c(Cl)cccc1NC(=O)Cn1cc(C(=O)C2CC2)c2ccccc21	N
O=C(c1cnccn1)N1CC[C@@H]2CNS(=O)(=O)[C@@H]2CC1	N
O=C(Nc1ccc(-c2cn3ccsc3n2)cc1)c1ccc(Cl)c([N+](=O)[O-])c1	Y
CCN(c1ccc(NC(=O)COC(=O)c2cccnc2Nc2cccc(C(F)(F)F)c2)cc1)C(C)C	N

###

target: Ubiquitin carboxyl-terminal hydrolase 8 (Homo sapiens); test: Ubiquitin-specific protease 8 inhibitors, concentration-effect, biochemical, validation of initial actives (AID 1645862); details: recombinant USP8 deubiquitinase activity assay;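 also: potency reflects inhibition of USP8 cleavage of a ubiquitin rhodamine substrate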
The source made the active and inactive calls. How the calls were made is not given here.
Labels: active, inactive

molecule	qualitativeLabel
O=c1c2[nH]c3ccccc3c2ncn1CCC1=CCCCC1	inactive
Cc1ccc(Nc2nc(O)c(CC(=O)Nc3cccc(Cl)c3C)s2)cc1C	inactive
O=C(COc1ccc(N2CC(C(=O)NCc3ccccc3)CC2=O)cc1)Nc1ccccc1Cl (stereo unspecified)	inactive
O=C(NCCN1CCOCC1)c1cn2cc(Cl)ccc2n1	inactive
COc1cc(Cn2cnc3c([nH]c4ccc(Br)cc43)c2=O)cc(OC)c1	inactive
C[C@H](NC(=O)Cc1ccccc1F)c1nc2cc(-c3ccccc3F)ncn2n1	inactive
Cc1ccc(Cn2c(C(=O)O)c(CNCc3ccco3)c3ccccc32)cc1	inactive
COc1cc(/C=C/C(=O)OCC(=O)Nc2ccc([N+](=O)[O-])cc2OC)ccc1O	active
Cc1ccc(N2CC(C(=O)Nc3cccc(-c4noc(C)n4)c3)CC2=O)cc1 (stereo unspecified)	inactive
CCCc1nnc(C(=O)Nc2ccc(C(=O)NC(C)c3ccccc3)cc2)s1 (stereo unspecified)	inactive
C[C@H](Cc1cc2c(cc1O)OCO2)[C@@H](C)Cc1cc2c(cc1O)OCO2	active
CC(C)Cc1nc2sc3c(SCC(=O)N4CCC(C)CC4)ncnc3c2c2c1COC(C)(C)C2	inactive
CCC(=O)Nc1nc2cc(NC(=O)Nc3ccccc3Cl)ccc2s1	inactive
O=C(NCCc1nc2ccccc2n1CCCOc1ccccc1Cl)C1CCCCC1	inactive
O=C(NCc1ccccc1)Nc1cccc2ccccc12	inactive
COc1ccc2c(c1)CCc1c-2n[nH]c1C(=O)Nc1cc(C)on1	inactive
Cc1c(C)n(-c2ccccc2)c2ncn(CC(=O)NCc3cccc(F)c3)c(=O)c12	inactive
CCCCNC(=O)C1Sc2nnc(-c3ccccc3)n2NC1c1ccccc1 (stereo unspecified)	inactive
Cc1ccc(-n2c(=O)c3ccc(C(=O)NCc4ccco4)cc3n(CC(=O)NCCC3=CCCCC3)c2=O)cc1	inactive
Cn1c(=O)n(CCc2ccccc2)c(=O)c2c1nc1n2CCN1Cc1ccccc1	inactive
NC(=O)c1nc(-c2cccnc2)nc2c1[nH]c(=O)n2-c1ccc2c(c1)OCO2	inactive
